Values from paper PMC10330721

Assay: Haemolytic activity assay
Format: cell-based
Conditions: human red blood cells (RBCs) from healthy donors, 40 µM, 37°C, read-out: Percentage of haemolysis
Description: This test is based on comparison of the cytotoxicity of all tested compounds in human red blood cells (RBCs) with that in a control group. RBCs for this method were obtained from a blood center from examined and healthy donors. The compounds were tested at 10, 20, 40, 60, 80, and 100 μM concentrations. […] Then, the absorbance at 540 nm was measured using a UV–Vis spectrophotometer (Specord 40, Analytik Jena, Jena, Germany). […]
hemolysis at 1 h, 40 µM by entry:
The response must be a number in % with no trailing unit.

| Molecule | Measurement |
| --- | --- |
| CC(O)C(=O)c1ccc2c(c1)OCO2 (stereo not drawn) [1c] | 1.81 |
| CC=Cc1ccc(OC)c(OC)c1 [4a, 1,2-dimethoxy-4-prop-1-en-1-yl benzene] | 1.67 |
| COc1ccc(C(=O)C(C)O)cc1OC (stereo not drawn) [4c] | 2.1 |

Problem: Requested read-out: hemolysis at 1 h, 40 µM. Entry: COc1ccc(C(=O)C(C)O)cc1 (stereo not drawn) [3c]
Result: 1.73

Problem: Requested read-out: hemolysis at 1 h, 40 µM. Entry: CC(O)C(O)c1ccc2c(c1)OCO2 (stereo not drawn) [1b, 1-(1,3-benzodioxol-5-yl)propane-1,2-diol]
Result: 1.98

Problem: Requested read-out: hemolysis at 1 h, 40 µM. Entry: COc1ccc(C(O)C(C)O)cc1 (stereo not drawn) [3b, 1-(4-methoxyphenyl)propane-1,2-diol]
Result: 1.9
